Measured Cytotox ratio Pf FGAA, listed per entry for reference.
# Test system: P. falciparum female gametocytes
# experimentalDetails: P. falciparum Female Gametocyte Activation Assay (PfFGAA)
# Format: cell-based, Plasmodium falciparum
# conditionDetails: human
Write the value as a bare number.

Prompt: Let me know recorded Cytotox ratio Pf FGAA for CN1CCN(CCCNCc2cccc(-c3ccc(CNCCc4ccccc4)cc3)c2)CC1.O=C(O)C(F)(F)F [TCMDC-140643] , thanks.
Completion: 6.8

Prompt: Let me know recorded Cytotox ratio Pf FGAA for CN(C)CCNCc1cccc(-c2ccc3c(Nc4ccc(Oc5ccccn5)cc4)ccnc3c2)c1 [TCMDC-138493] , thanks.
Completion: 4.9

Prompt: Let me know recorded Cytotox ratio Pf FGAA for CN(C)CCOc1ccc(NC(=O)NC(C)(C)c2nc(-c3ccc(Cl)c(O)c3)c(-c3ccncc3)[nH]2)cc1.Cl [TCMDC-140744] , thanks.
Completion: 29.8

Prompt: Let me know recorded Cytotox ratio Pf FGAA for COc1cc2nc(N3CCN(c4nc(N)c5cc(OC)c(OC)cc5n4)CC3)nc(N)c2cc1OC [TCMDC-123865] , thanks.
Completion: 68.3

Prompt: Let me know recorded Cytotox ratio Pf FGAA for CC(Nc1cc(-c2ccccn2)nc(-c2ccccn2)n1)c1ccccc1 (centres unmarked) [TCMDC-125420] , thanks.
Completion: 29.4
